# credit: the supplement of paper PMC6555819

- System: PPARg:RXRa 270nM:90nM, anti-RXR (NR concentration 270 nM, RXRa partner concentration 90 nM)
- protocol: PBM binding z-score (relative to random genomic background probes); higher = stronger binding; sequences stand for … in GC…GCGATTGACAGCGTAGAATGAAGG
measure: PBM binding z-score
Note: the reply should be a number with no unit written.

{"columns": ["sequence.code", "measure", "value.measured"],
 "data": [
  ["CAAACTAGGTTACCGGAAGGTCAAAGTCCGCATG", "PBM binding z-score", 5.55],
  ["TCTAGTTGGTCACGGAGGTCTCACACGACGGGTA", "PBM binding z-score", 1.99],
  ["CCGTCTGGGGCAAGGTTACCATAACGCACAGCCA", "PBM binding z-score", 2.36],
  ["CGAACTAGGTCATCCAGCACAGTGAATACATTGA", "PBM binding z-score", 6.28],
  ["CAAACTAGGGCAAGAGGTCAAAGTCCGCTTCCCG", "PBM binding z-score", 6.92]
]}

Problem: So what does the record say about PBM binding z-score for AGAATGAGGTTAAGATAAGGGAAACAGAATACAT ?
Solution: 2.29

Problem: So what does the record say about PBM binding z-score for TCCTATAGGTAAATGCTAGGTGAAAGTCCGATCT ?
Solution: 1.7

Problem: So what does the record say about PBM binding z-score for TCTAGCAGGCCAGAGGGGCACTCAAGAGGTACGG ?
Solution: 1.41

Problem: So what does the record say about PBM binding z-score for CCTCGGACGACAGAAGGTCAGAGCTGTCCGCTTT ?
Solution: -0.0801

Problem: So what does the record say about PBM binding z-score for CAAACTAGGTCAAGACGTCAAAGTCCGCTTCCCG ?
Solution: 6.72
